Molecular target: recombinant human mGluR4a receptors (Homo sapiens, UniProt Q14833)
Sequence (Q14833 33-912): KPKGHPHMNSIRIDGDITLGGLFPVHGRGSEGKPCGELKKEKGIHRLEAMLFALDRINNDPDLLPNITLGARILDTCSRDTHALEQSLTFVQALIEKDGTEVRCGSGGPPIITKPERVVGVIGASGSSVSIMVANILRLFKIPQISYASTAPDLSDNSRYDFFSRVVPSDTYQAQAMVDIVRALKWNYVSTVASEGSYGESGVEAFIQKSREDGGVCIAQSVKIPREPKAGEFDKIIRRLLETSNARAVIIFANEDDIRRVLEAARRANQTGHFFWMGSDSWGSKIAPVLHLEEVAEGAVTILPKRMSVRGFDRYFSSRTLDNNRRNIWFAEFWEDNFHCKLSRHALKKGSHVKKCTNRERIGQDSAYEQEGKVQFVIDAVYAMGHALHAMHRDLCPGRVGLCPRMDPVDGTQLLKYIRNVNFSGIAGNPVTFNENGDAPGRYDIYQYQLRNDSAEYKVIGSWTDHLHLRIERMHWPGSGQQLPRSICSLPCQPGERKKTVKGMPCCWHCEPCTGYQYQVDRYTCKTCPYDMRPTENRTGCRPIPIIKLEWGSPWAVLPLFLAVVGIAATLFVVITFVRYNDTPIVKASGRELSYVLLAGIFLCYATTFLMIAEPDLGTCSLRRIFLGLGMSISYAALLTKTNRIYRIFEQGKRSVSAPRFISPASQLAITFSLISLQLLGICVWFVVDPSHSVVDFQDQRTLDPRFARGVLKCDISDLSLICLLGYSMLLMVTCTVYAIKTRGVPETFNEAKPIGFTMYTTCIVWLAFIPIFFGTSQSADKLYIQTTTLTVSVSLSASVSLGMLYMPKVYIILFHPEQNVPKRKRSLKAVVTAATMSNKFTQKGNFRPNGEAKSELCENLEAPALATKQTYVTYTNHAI
Assay: mGluR4 assay on HEK-expressing human mGluR4: fluorescent cell based Ca2+ mobilization assay (FLIPR)
Settings: HEK-293 cells expressing hmGluR4; enhancement of EC25 glutamate response; mean of at least three independent experiments in duplicate; read-out: Ca^2+ Flux (mean EC50)
Source text: mGluR4 Assay on HEK-Expressing Human mGluR4 The compounds of the present invention are positive allosteric modulators of mGluR4 receptor. Their activity was examined on recombinant human mGluR4a receptors by detecting changes in intracellular Ca^2+ concentration, using the fluorescent Ca^2+-sensitive dye Fluo4-(AM) and a Fluorometric Imaging Plate Reader (FLIPR, Molecular Devices, Sunnyvale, Calif.). […]
pEC50: −log10 of the molar value.
Known pEC50 of a selection of compounds

The examples below pair each entry with its known result.
Lab note: "Fc1cnc(Nc2nc3c(s2)CCN(CCCN2CCOCC2)c2n[nH]cc2-3)nc1" gave pEC50 of > 7.00

Lab note: "COCc1ccc(CN2CCc3sc(Nc4ncc(F)cn4)nc3-c3cn[nH]c32)nc1" gave pEC50 of > 7.00

Lab note: "Cc1ccnc(Nc2nc3c(s2)CCN(Cc2ncccn2)c2[nH]ncc2-3)n1" gave pEC50 of 6.00 to 7.00

Lab note: "COC(C)(C)CN1CCc2sc(Nc3ncc(F)cn3)nc2-c2cn[nH]c21" gave pEC50 of 6.00 to 7.00

More entries:
Lab note: "Fc1cnc(Nc2nc3c(s2)CCN(C[C@@H]2CCCO2)c2[nH]ncc2-3)nc1" gave pEC50 of > 7.00

Lab note: "O=S1(=O)CCN(CCCN2CCc3sc(Nc4ncc(F)cn4)nc3-c3cn[nH]c32)CC1" gave pEC50 of > 7.00

Lab note: "Fc1cnc(Nc2nc3c(s2)CCN(CCCN2CCC(F)(F)CC2)c2[nH]ncc2-3)nc1" gave pEC50 of 6.00 to 7.00

Lab note: "FCCCN1CCc2sc(Nc3ncc(F)cn3)nc2-c2cn[nH]c21" gave pEC50 of 5.00 to 6.00

Lab note: "Fc1cnc(Nc2nc3c(s2)CCN(CCN2CCOCC2)c2[nH]ncc2-3)nc1" gave pEC50 of 6.00 to 7.00

Lab note: CC1COCC(C)N1CCCN1CCc2sc(Nc3ncc(F)cn3)nc2-c2cn[nH]c21 (centres unmarked) gave pEC50 of > 7.00

Lab note: "CCOCCN1CCc2sc(Nc3ncc(F)cn3)nc2-c2cn[nH]c21" gave pEC50 of > 7.00

Lab note: "Cc1ccnc(Nc2nc3c(s2)CCN(Cc2ccc(Cl)cn2)c2[nH]ncc2-3)n1" gave pEC50 of > 7.00

Lab note: "Cc1ccnc(Nc2nc3c(s2)CCNc2[nH]ncc2-3)n1" gave pEC50 of > 7.00

====

Target: recombinant human mGluR4a receptors (Homo sapiens, UniProt Q14833)
Experiment: mGluR4 assay on HEK-expressing human mGluR4: fluorescent cell based Ca2+ mobilization assay (FLIPR)
Conditions: HEK-293 cells expressing hmGluR4; enhancement of EC25 glutamate response; mean of at least three independent experiments in duplicate; read-out: Ca^2+ Flux (mean EC50)
Known EC50 of a selection of molecules

Lab note: "Cn1ccc(CN2CCc3sc(Nc4ncc(F)cn4)nc3-c3cn[nH]c32)n1" gave EC50 of 100 to 1000 nM

Lab note: "Fc1cnc(Nc2nc3c(s2)CCN(Cc2cc(C4CC4)no2)c2[nH]ncc2-3)nc1" gave EC50 of < 100 nM

Lab note: "COCCN1CCc2sc(Nc3ncc(F)c(C)n3)nc2-c2cn[nH]c21" gave EC50 of < 100 nM

For the next question, use this molecule.
Lab note: "OCCCN1CCc2sc(Nc3ncc(F)cn3)nc2-c2cn[nH]c21" gave EC50 of 100 to 1000 nM

====

Biological target: recombinant human mGluR4a receptors (Homo sapiens, UniProt Q14833)
Test: mGluR4 assay on HEK-expressing human mGluR4: fluorescent cell based Ca2+ mobilization assay (FLIPR)
Settings: HEK-293 cells expressing hmGluR4; enhancement of EC25 glutamate response; mean of at least three independent experiments in duplicate; read-out: Ca^2+ Flux (mean EC50)
parameter: EC50

Lab note: Fc1cnc(Nc2nc3c(s2)CCN(CC2CC(F)(F)C2)c2[nH]ncc2-3)nc1 [Compound 1-14] gave EC50 of 100 to 1000 nM

Lab note: COCC(C)N1CCc2sc(Nc3ncc(F)cn3)nc2-c2cn[nH]c21 (centres unmarked) [Compound 1-125] gave EC50 of < 100 nM

Lab note: CC(C)N1CCN(CCN2CCc3sc(Nc4ncc(F)cn4)nc3-c3cn[nH]c32)CC1 [Compound 1-141] gave EC50 of 1000 to 10000 nM

Lab note: CC(C)c1nc(CN2CCc3sc(Nc4ncc(F)cn4)nc3-c3cn[nH]c32)no1 [Compound 1-147] gave EC50 of < 100 nM

Lab note: COC[C@H](C)N1CCc2sc(Nc3ncc(F)cn3)nc2-c2cn[nH]c21 [Compound 1-131] gave EC50 of < 100 nM

Lab note: Cc1noc(CN2CCc3sc(Nc4ncc(F)cn4)nc3-c3cn[nH]c32)n1 [Compound 1-150] gave EC50 of < 100 nM

Lab note: Cc1nc(CN2CCc3sc(Nc4ncc(F)cn4)nc3-c3c[nH]nc32)no1 [Compound 1-138] gave EC50 of < 100 nM

Lab note: FCCN1CCc2sc(Nc3ncc(F)cn3)nc2-c2cn[nH]c21 [Compound 1-137] gave EC50 of < 100 nM

====

parameter: melting point

The examples below pair each entry with its known result.
Lab note: "COC[C@H](C)N1CCc2sc(Nc3ncc(F)cn3)nc2-c2cn[nH]c21" gave melting point of 249 to 251 °C

Lab note: "CCOCCN1CCc2sc(Nc3ncc(F)cn3)nc2-c2cn[nH]c21" gave melting point of 246 °C

Lab note: "O=S1(=O)CCN(CCCN2CCc3sc(Nc4ncc(F)cn4)nc3-c3cn[nH]c32)CC1" gave melting point of 272 to 273 °C

Lab note: "Fc1cnc(Nc2nc3c(s2)CCN(CCCN2CCC(F)(F)CC2)c2[nH]ncc2-3)nc1" gave melting point of 238 to 240 °C

Lab note: "COCc1ccc(CN2CCc3sc(Nc4ncc(F)cn4)nc3-c3cn[nH]c32)nc1" gave melting point of 198 to 202 °C

More entries:
Lab note: "Fc1cnc(Nc2nc3c(s2)CCN(CCCN2CCCCC2)c2[nH]ncc2-3)nc1" gave melting point of 227 °C

Lab note: "Fc1cnc(Nc2nc3c(s2)CCN(Cc2ccc(N4CCOCC4)cn2)c2[nH]ncc2-3)nc1" gave melting point of 240 °C

Lab note: "CC(C)c1nc(CN2CCc3sc(Nc4ncc(F)cn4)nc3-c3cn[nH]c32)no1" gave melting point of > 260 °C

====

parameter: melting point

Lab note: "Cc1ccnc(Nc2nc3c(s2)CCN(Cc2ccc(Cl)cn2)c2[nH]ncc2-3)n1" gave melting point of 165 to 168 °C

For the next question, use this molecule.
Lab note: "Fc1cnc(Nc2nc3c(s2)CCN(Cc2cc(C4CC4)no2)c2[nH]ncc2-3)nc1" gave melting point of 266 to 268 °C

====

Molecular target: recombinant human mGluR4a receptors (Homo sapiens)
Construct: expressed in transfected cells
Assay: mGluR4 assay on HEK-expressing human mGluR4: fluorescent cell based Ca2+ mobilization assay (FLIPR)
Details: HEK-293 cells expressing hmGluR4; enhancement of EC25 glutamate response; mean of at least three independent experiments in duplicate; read-out: Ca^2+ Flux (mean EC50)
Known EC50 of a selection of molecules

Lab note: "COCCOCCN1CCc2sc(Nc3ncc(F)cn3)nc2-c2cn[nH]c21" gave EC50 of < 0.1 µM

Lab note: "Fc1cnc(Nc2nc3c(s2)CCN(CCCN2CCCCC2)c2[nH]ncc2-3)nc1" gave EC50 of 0.1 to 1 µM

Lab note: "Fc1cnc(Nc2nc3c(s2)CCN(Cc2cc(C4CC4)on2)c2[nH]ncc2-3)nc1" gave EC50 of < 0.1 µM

For the next question, use this molecule.
Lab note: "CNCCCN1CCc2sc(Nc3ncc(F)cn3)nc2-c2cn[nH]c21" gave EC50 of 1 to 10 µM

====

Known pEC50 of a selection of compounds
Target: recombinant human mGluR4a receptors (Homo sapiens)
Assay: mGluR4 assay on HEK-expressing human mGluR4: fluorescent cell based Ca2+ mobilization assay (FLIPR)
Settings: HEK-293 cells expressing hmGluR4; enhancement of EC25 glutamate response; mean of at least three independent experiments in duplicate; read-out: Ca^2+ Flux (mean EC50)
From the text: mGluR4 Assay on HEK-Expressing Human mGluR4 The compounds of the present invention are positive allosteric modulators of mGluR4 receptor. Their activity was examined on recombinant human mGluR4a receptors by detecting changes in intracellular Ca^2+ concentration, using the fluorescent Ca^2+-sensitive dye Fluo4-(AM) and a Fluorometric Imaging Plate Reader (FLIPR, Molecular Devices, Sunnyvale, Calif.). […]
pEC50: −log10 of the molar value.

The examples below pair each entry with its known result.
Lab note: "Cc1ccnc(Nc2nc3c(s2)CCN(Cc2noc(C)n2)c2[nH]ncc2-3)n1" gave pEC50 of > 7.00

Lab note: "N#Cc1cccc(CN2CCc3sc(Nc4ncc(F)cn4)nc3-c3cn[nH]c32)c1" gave pEC50 of 6.00 to 7.00

Lab note: "Fc1cnc(Nc2nc3c(s2)CCN(Cc2ccc(N4CCOCC4)cn2)c2[nH]ncc2-3)nc1" gave pEC50 of > 7.00

For the next question, use this compound.
Lab note: "Fc1cnc(Nc2nc3c(s2)CCN(Cc2csc(C4CC4)n2)c2[nH]ncc2-3)nc1" gave pEC50 of 6.00 to 7.00
